Ref: paper PMC8695447

- System: AsPC-1 (KRAS-G12D)
- Measurement description: Anti-proliferation assay on AsPC-1
- Assay type: cell-based
- Reported conditions: Homo sapiens, ASPC1; 72 h treatment; average with SD (n = 3, duplicate)
Endpoint name: GI50 (nM)

Worked cases, answers included:
Cc1ccc(NC(=O)c2cccc(C(F)(F)F)c2)cc1N1Cc2cnc(Nc3ccc(N4CCCCC4)cc3)nc2N(C)C1=O [Compound 1]	2020
COCCn1cc(Nc2ncc3c(n2)N(C)C(=O)N(c2cc(NC(=O)c4cccc(C(F)(F)F)c4)ccc2C)C3)cn1 [Compound 12]	275
CCN1CCN(c2cccc(Nc3ncc4c(n3)N(C)C(=O)N(c3cc(NC(=O)c5cccc(C(F)(F)F)c5)ccc3C)C4)c2)CC1 [SIJ1795]	144
CCN1CCC(n2cc(Nc3ncc4c(n3)N(C)C(=O)N(c3cc(NC(=O)c5cccc(C(F)(F)F)c5)ccc3C)C4)cn2)CC1 [Compound 13]	186
Cc1ccc(NC(=O)c2cccc(C(F)(F)F)c2)cc1N1Cc2cnc(Nc3cnn(C4CCN(S(C)(=O)=O)CC4)c3)nc2N(C)C1=O [SIJ1772]	170

a. Cc1ccc(Nc2ncc3c(n2)N(C)C(=O)N(c2cc(NC(=O)c4cccc(C(F)(F)F)c4)ccc2C)C3)c(C)n1 [Compound 6]
b. COc1cc(N2CCOCC2)ccc1Nc1ncc2c(n1)N(C)C(=O)N(c1cc(NC(=O)c3cccc(C(F)(F)F)c3)ccc1C)C2 [Compound 7]
c. CCN1CCN(c2ccc(Nc3ncc4c(n3)N(C)C(=O)N(c3cc(NC(=O)c5cccc(C(F)(F)F)c5)ccc3C)C4)cc2)CC1 [Compound 4]
d. Cc1ccc(NC(=O)c2cccc(C(F)(F)F)c2)cc1N1Cc2cnc(Nc3ccn(C)n3)nc2N(C)C1=O [Compound 11]
List by increasing GI50. The labels, placed in the requested order, form the answer. c, d, b, a
(c: 135 nM, d: 318 nM, b: 1680 nM, a: 3170 nM)

P. Cc1ccc(NC(=O)c2cccc(C(F)(F)F)c2)cc1N1Cc2cnc(Nc3cnn(C)c3)nc2N(C)C1=O [Compound 10]
Q. Cc1ccc(NC(=O)c2cccc(C(F)(F)F)c2)cc1N1Cc2cnc(NCCCN3CCOCC3)nc2N(C)C1=O [Compound 5]
Compare reported GI50 values for P and Q . Which is lower? In your reply, give the label of the chosen option. P
(P: 105 nM, Q: 4160 nM)

I. Cc1ccc(NC(=O)c2cccc(C(F)(F)F)c2)cc1N1Cc2cnc(Nc3ccc(N4CCOCC4)cc3)nc2N(C)C1=O [Compound 3]
II. CCN1CCN(c2ccc(Nc3ncc4c(n3)N(C)C(=O)N(c3cc(NC(=O)c5cccc(C(F)(F)F)c5)ccc3C)C4)c(C(F)(F)F)c2)CC1 [Compound 8]
III. Cc1ccc(NC(=O)c2cccc(C(F)(F)F)c2)cc1N1Cc2cnc(Nc3ccc(N4CCC(O)CC4)cc3)nc2N(C)C1=O [Compound 2]
List by increasing GI50. The labels, placed in the requested order, form the answer. I, III, II
